Provenance of the data: ChEMBL document CHEMBL1129435

Test system: Human alphaherpesvirus 1
Assay: Antiviral activity against thymidine kinase deficient herpes simplex virus-1 HSV-1 TK- B2006 strain in E6SM cell culture
Type: functional, organism-based
Conditions: Human alphaherpesvirus 1, E6SM
So I've got a bunch of compounds here, and I need their IC50 values.
Supply the numeric figure in µg/mL, leaving out any unit text.

Per the records, this compound ( `Nc1nc(N)c2nnn(CCOCP(=O)(O)O)c2n1` ) has IC50 equal to 150

Reported IC50 for `C[C@H](Cn1nc2ncnc(N)c2n1)OCP(=O)(O)O` was 150

The recorded IC50 for `C[C@H](Cn1nnc2c(N)ncnc21)OCP(=O)(O)O` is 70

GET /value?item= `C[C@H](Cn1nnc2c(N)nc(N)nc21)OCP(=O)(O)O` &field=IC50 returns 300

Value of IC50 reported for the compound `Nc1ncnc2nn(C[C@@H](CO)OCP(=O)(O)O)nc12` is 150

So, `Nc1nc(N)c2nnn(C[C@@H](CO)OCP(=O)(O)O)c2n1` ? Its IC50 was 20

Form field IC50, entry `Nc1nc(O)c2nnn(CCOCP(=O)(O)O)c2n1` : 7

Looking up `C[C@H](Cn1nc2nc(N)nc(N)c2n1)OCP(=O)(O)O` , I found its IC50 recorded as 200

====

Tested on: Human alphaherpesvirus 3
Assay: Antiviral activity in TK+ varicella zoster virus (VZV) YS strain in HEL cell culture
Format: functional, organism-based
Conditions: Human alphaherpesvirus 3, HEL
Kindly supply the reported IC50 values for the records listed here.

Reported IC50 for `Nc1ncnc2c1nnn2C[C@H](O)CO` was > 40 µg/mL

So for `C[C@@H](Cn1nnc2c(O)nc(N)nc21)OCP(=O)(O)O` , the logged IC50 turned out to be 4 µg/mL

IC50 measured on `Nc1ncnc2nn(C[C@@H](CF)OCP(=O)(O)O)nc12` = > 10 µg/mL

Looking up `Nc1nc(O)c2nnn(CCOCP(=O)(O)O)c2n1` , I found its IC50 recorded as 0.04 µg/mL

According to the records, this molecule `Nc1nc(N)c2nnn(C[C@@H](CF)OCP(=O)(O)O)c2n1` displays IC50 of > 50 µg/mL

Noted for `Nc1ncnc2c1nnn2C[C@@H](CF)OCP(=O)(O)O` : its IC50 reads > 40 µg/mL

IC50 for `Nc1nc(N)c2nnn(C[C@H](O)CO)c2n1` is > 50 µg/mL

Reported IC50 for `C[C@H](Cn1nc2ncnc(N)c2n1)OCP(=O)(O)O` was 5 µg/mL

Noted for `Nc1nc(N)c2nnn(C[C@@H](CO)OCP(=O)(O)O)c2n1` : its IC50 reads 6 µg/mL

Please fill in: IC50 reported for `CC(C)OP(=O)(CO[C@H](CO)Cn1nc2ncnc(N)c2n1)OC(C)C` = > 50 µg/mL

For reference, reported IC50 for `Nc1ncnc2c1nnn2CCOCP(=O)(O)O` stands at > 100 µg/mL

Quick note, IC50 for `Nc1nc(O)c2nn(CCOCP(=O)(O)O)nc2n1` landed at 40 µg/mL

Item: `C[C@H](Cn1nc2nc(N)nc(O)c2n1)OCP(=O)(O)O` | IC50: > 20 µg/mL

Reported IC50 of `Nc1ncnc2nn(C[C@@H](CO)OCP(=O)(O)O)nc12` : > 100 µg/mL

Looking up `Nc1ncnc2nn(CCOCP(=O)(O)O)nc12` , I found its IC50 recorded as > 100 µg/mL

GET /value?item= `Nc1nc(N)c2nn(C[C@@H](CF)OCP(=O)(O)O)nc2n1` &field=IC50 returns > 50 µg/mL

IC50 for `C[C@H](Cn1nnc2c(N)nc(N)nc21)OCP(=O)(O)O` is > 50 µg/mL

Lookup result for `C[C@H](Cn1nnc2c(O)nc(N)nc21)OCP(=O)(O)O` ; measured IC50: 28 µg/mL

Kindly note the recorded IC50 for `C[C@H](Cn1nc2nc(N)nc(N)c2n1)OCP(=O)(O)O` , which is > 50 µg/mL

So, `C[C@H](Cn1nnc2c(N)ncnc21)OCP(=O)(O)O` ? Its IC50 was 8 µg/mL

Summary for this molecule, `Nc1nc(N)c2nnn(CCOCP(=O)(O)O)c2n1` : IC50 is > 40 µg/mL

====

System: Human immunodeficiency virus 1
Experiment: Inhibition of human immunodeficiency virus-1 (HIV-1) induced cytopathicity in CEM cells
Assay type: functional, organism-based
Conditions: Human immunodeficiency virus 1, CCRF-CEM
Exercise: for every item that follows, state its recorded IC50.
Kindly answer with a numeric value in µg/mL, unit omitted.

For `C[C@H](Cn1nnc2c(N)nc(N)nc21)OCP(=O)(O)O` the compound record lists IC50 as 30

Lookup result for `Nc1nc(O)c2nnn(CCOCP(=O)(O)O)c2n1` ; measured IC50: 2

For reference, reported IC50 for `C[C@H](Cn1nnc2c(O)nc(N)nc21)OCP(=O)(O)O` stands at 2

IC50 recorded for this compound, `C[C@H](Cn1nc2nc(N)nc(O)c2n1)OCP(=O)(O)O` , is 20

// sample `C[C@H](Cn1nnc2c(N)ncnc21)OCP(=O)(O)O` , its IC50 was 7

Field IC50 (entry `C[C@@H](Cn1nnc2c(O)nc(N)nc21)OCP(=O)(O)O` ) reads 40

get_value(item= `Cc1cn([C@H]2C[C@H](N=[N+]=[N-])[C@@H](CO)O2)c(=O)[nH]c1=O` , readout=IC50) returns 0.005

GET /value?item= `Nc1nc(N)c2nnn(C[C@@H](CF)OCP(=O)(O)O)c2n1` &field=IC50 returns 50

====

Tested on: Human alphaherpesvirus 1
Experiment: Antiviral activity against thymidine kinase deficient herpes simplex virus-1 HSV-1 TK- B2006 strain in E6SM cell culture
Assay type: functional, organism-based
Conditions: Human alphaherpesvirus 1, E6SM
REPORTED ENDPOINT: IC50

// field: IC50; key: `Nc1ncnc2nn(CCOCP(=O)(O)O)nc12` ; value = > 400 µg/mL

In plain terms, `C[C@H](Cn1nc2nc(N)nc(O)c2n1)OCP(=O)(O)O` has a documented IC50 of > 400 µg/mL

`Nc1ncnc2nn(C[C@@H](CF)OCP(=O)(O)O)nc12` has a reported IC50 of > 40 µg/mL

Given item `C[C@@H](Cn1nnc2c(O)nc(N)nc21)OCP(=O)(O)O` , the value recorded as its IC50 is > 400 µg/mL

For `CC(C)OP(=O)(CO[C@H](CO)Cn1nc2ncnc(N)c2n1)OC(C)C` the compound record lists IC50 as > 400 µg/mL

The measured IC50 associated with `Nc1ncnc2c1nnn2C[C@@H](CF)OCP(=O)(O)O` reads > 400 µg/mL

Value of measured IC50 for the entry `C[C@H](Cn1nnc2c(O)nc(N)nc21)OCP(=O)(O)O` : > 100 µg/mL

Query `Nc1nc(O)c2nn(CCOCP(=O)(O)O)nc2n1` yields IC50 of > 400 µg/mL

For record `Nc1ncnc2c1nnn2CCOCP(=O)(O)O` the listed IC50 is > 200 µg/mL

Record summary for `Nc1nc(N)c2nn(C[C@@H](CF)OCP(=O)(O)O)nc2n1` : reported IC50 = > 400 µg/mL

Per the record, `Nc1nc(N)c2nnn(C[C@@H](CF)OCP(=O)(O)O)c2n1` has IC50 of > 400 µg/mL
